Hello, the source for this data is a melting point compilation (Tetko et al.; mined from patent text by program, amines drawn as free bases though some values may be those of a salt), in case you need it.

reported metric: melting point

compound	melting point
CC(=O)Nc1ccc(S(=O)(=O)CCCl)cc1	188 °C

# batch size: 3; output melting point per entry
1. Cc1c(C)c(N2CCN(c3nncs3)CC2)c(C)c2c1OC(C)C2 (stereo unspecified)
2. Nc1nc2ccccc2c2c1nc(CN1CCOCC1)n2Cc1ccccc1
3. CC1=CC(=O)C(N)=CC1=N

203 to 205 °C
> 300 °C
205 °C

Hi! Can you tell me melting point for each of these compounds?
1. c1ccc(-c2[nH]c3cc4c(cc3c2-c2ccccc2)OCO4)cc1
2. CS(=O)(=O)c1ccc(-c2cccn2-c2ccc(OC(F)(F)F)cc2)cc1

187 to 188 °C
150 to 152 °C

----------
Please respond with reported melting point for every item in the list.

Some compounds with known melting point results, for comparison:
compound	melting point
CCCCCCCCCCCCC(=O)Nc1ccn(C2OC(CO)C(O)C2O)c(=O)n1 (stereo unspecified)	143 to 146 °C
COc1cc(N)c(Cl)cc1C(=O)NN1CCN(Cc2ccsc2)CC1	223 to 224 °C
O=C1NC(CN2CCN(c3ccccc3)CC2)Cc2c[nH]c3cccc1c23 (stereo unspecified)	184 to 185 °C
COC(=O)c1cc(-c2ccc(C)c(C)c2)n(Cc2ccc(F)cc2)n1	93 °C
CCCc1cc(CCCCC(=O)O)ccc1OC	84 °C
O=C1c2c(Cl)cccc2-n2cnc(-c3cccs3)c2[C@@H]2CCCN12	226 to 227 °C
CC(Oc1ccc2c(=O)c(-c3ccccc3)coc2c1)C(=O)O (stereo unspecified)	201 to 202 °C
COc1cc(OC)c2c(c1)C(C)(C)C(c1ccc(OC)c(OC)c1)C(C)C(=O)O2 (stereo unspecified)	163 to 165 °C

Hi, could you look up melting point for each item in my list?
1. CCOC(=O)NNC(=O)Nc1c(F)c(F)c(F)c(F)c1F
2. Cc1onc(-c2ccc(-c3cscn3)cc2)c1-c1ccc(S(N)(=O)=O)cc1
3. C=CS(=O)(=O)CS(=O)(=O)C=C

1: 180 to 182 °C; 2: 112 to 115 °C; 3: 59 to 61 °C

----------
reported metric: melting point

Below: 2 compounds and their reported melting point.
smiles entry	result
CNS(=O)(=O)c1cc(O)ccc1OC(=O)c1ccccc1	168 to 170 °C
Cn1ncnc1COc1nn2c(-c3ccccc3F)nncc2c1-c1cccnc1	181 to 183 °C

Would you mind telling me what melting point value was observed for "Oc1ccc2c(c1)cc1n2CCC1" ?
116 to 118 °C

----------
Could you please report measured melting point for the items listed next?

Use these answered entries as a reference point.
compound	reported metric	result
CCCCN(C(=O)c1cnc(N2CC(C)(C)NC2=O)nc1N)c1cccc(C(F)(F)F)c1	melting point	154 to 155 °C
Cc1cc(C)c(CC(=O)c2ccc(C(C)C)c(OS(N)(=O)=O)c2C(C)C)c(C)c1	melting point	159 to 161 °C
O=C(O)C(=O)c1ccc(OCCOC2CCCCCCC2)cc1	melting point	64 to 65 °C
O=C(O)CSC1CCCc2cc3c(cc21)OCO3 (stereo not given)	melting point	138 to 139 °C
CCOP(C)(=O)CC(CC(C)C)NS(=O)(=O)c1ccc(C)cc1 (stereo not given)	melting point	96 to 105 °C
NS(=O)(=O)c1ncc2ccccn12	melting point	179 to 180 °C
Cc1c(C(F)(F)F)ncn(-c2c(Cl)cc(C(F)(F)F)cc2C#N)c1=O	melting point	154 to 155 °C
COc1c(N2CC3CCC3(NC(=O)OC(C)(C)C)C2)c(F)cc2c(=O)c(C(=O)O)cn(C3CC3)c12 (stereo not given)	melting point	211 to 213 °C
CN(C)C1(c2ccccc2)CCC2(OCCc3c2[nH]c2ccccc32)C(CC#N)C1 (stereo not given)	melting point	260 to 267 °C
CN(C)C(=O)CCC(=O)NC1CCC(CCN2CCN(c3nccc4c3OCC4)CC2)CC1 (stereo not given)	melting point	178 °C

// for each compound in input: emit melting point
1. O=C(Nc1cc(C(F)(F)F)ccc1N1CCCCCC1)c1ccncc1
2. OCCCCc1ccc(OCc2coc(/C=C/c3ccc(F)cc3F)n2)cc1
3. Cn1c([N+](=O)[O-])cnc1-c1nnc2ccc(N=C(N)CCO)nn12
4. COc1ccc(-c2nc(N)ncc2-c2ccc(=O)n(C(C)C)n2)cc1F

1: 138 to 139 °C; 2: 75 to 76 °C; 3: 191 to 192 °C; 4: 174 °C

melting point for CCOC(=O)C1=C(C)N(C(C)=O)C(c2csc(C)n2)=NC1c1cccc(OC)c1 (stereo not given) ?
114 to 116 °C

----------
reported metric: melting point

molecule	reported metric	result
CC#CCOc1ccc(S(=O)(=O)N(C)c2c(C(=O)OCC)cnc3onc(C)c23)cc1	melting point	85 to 90 °C

Would you be so kind as to report melting point for each listed record?
1. N#Cc1ncccc1C(=O)ON=Cc1ccc(Cl)cc1
2. CCc1cc2c3ccccc3c(C=O)cc2c2ccccc12
3. O=C1C=CC(=C(c2ccc3ccccc3c2)c2ccc3ccccc3c2)O1
4. Cc1cccc(-c2n[nH]cc2-c2ccc(F)c(-c3c[nH]c(CC(C)(C)O)n3)c2)n1
5. CS(=O)(=O)c1ccc(-n2cccc2-c2ccc(Cl)cc2)cc1

1: 160 °C; 2: 138 to 139 °C; 3: 138 to 140 °C; 4: 136 to 140 °C; 5: 203 to 205 °C

----------
What melting point was measured for each of the following?
Answers are plain numbers, in °C.

smiles entry	numeric readout
O=C(O)c1cnc(CO)s1	193

Shift focus to the following entry.
What value of melting point has been reported for the following molecule? "COc1ccc(Cl)cc1C(=O)NCc1ccc(-c2ccc(OC(C)(C)C(=O)O)cc2)cc1"
104

----------
Would you mind telling me the reported melting point of each entry?

compound	melting point
CC(C)(C)c1ccc(-c2nn3c(=O)c([N+](=O)[O-])c(Cl)nc3s2)cc1	245 to 248 °C

Items follow; give melting point for each.
1. CCCc1nc(C)nc(Cl)c1Cc1ccc([N+](=O)[O-])cc1
2. O=C(O)C=CC(=O)Nc1ccc(C(=O)O)cc1
3. COC(=O)c1ccccc1OS(=O)(=O)N(C)C
4. COc1cc(OCC(CO)CO)c(C=CC(=O)c2ccc(C(=O)O)cc2)cc1-c1cccs1

65 °C
217 to 219 °C
75.5 to 76.5 °C
219 to 220 °C

----------
Record form. Attribute: melting point. Fill in for each entry.

Below, each entry is followed by its recorded melting point result.
compound	melting point
C[C@@H]1CCCN1CCCOc1ccc(-c2ccc(=O)[nH]n2)cn1	178 to 181 °C
COC(=O)CCCCCSC1=CCCC1=O	45 to 46.5 °C
OCc1cc(C(F)(F)F)ccc1I	81 to 82 °C
CCCCCCCSc1nn2c(=O)c(C)c(F)nc2s1	78 to 91 °C
NC(=NC(=O)Cn1c(Cl)ccc1Cl)NC(=O)c1ccccc1	212 to 213 °C
CCCCCCC(=N)NC(=S)Nc1ccc(Cl)cc1	112 to 113 °C
CC(C)c1ccc(-c2csc(-c3cccc(C(=O)O)c3)n2)cc1	206 to 208 °C
COC(=O)c1ccc(-c2nc(NCc3ccc4c(c3)OCO4)c3c4c(sc3n2)CCCC4)cc1	198 °C

Each compound below has a reported value. Please supply its melting point.
1. O=C1N(CCCl)c2ccc(F)cc2C12SCCCS2
2. COc1ccc(NC(=O)c2coc3c2C(=O)CCCC3)c(F)c1
3. CC(=O)C(C(N)=O)=C(C)[N+](=O)[O-]
4. Nc1ncnc2c1c(-c1cccnc1)nn2Cc1oc2ccccc2c(=O)c1-c1ccccc1
5. Cc1ccc(C(=O)Nc2ccc(C(=O)CCC(=O)O)cc2)cc1
6. C#CCCCC1(S(=O)(=O)c2ccc(C)cc2)SC(=O)NC1=O (centres undefined)

122 °C
168 to 172 °C
159 to 161 °C
253 to 255 °C
257 to 258 °C
226 °C

----------
reported metric: melting point

smiles entry	melting point
CC(C)(C)OC(=O)N1CCC(NC(=O)c2ccc(Cn3cccn3)cc2)CC1	168 to 169 °C
O=C(C=Cc1ccccc1)OCC#CC#CCOC(=O)C=Cc1ccccc1	102 to 104 °C

Then this compound:
Any idea what its melting point is? The compound is "CCOC(=O)NNc1nc2ccc(-n3ccnc3)cc2n(OCc2ccccc2)c1=O"
197 to 199 °C

----------
reported metric: melting point

Provide melting point for all items below, preserving their order.
1. OCCCN1Cc2cccc3c2N(CC3)c2ccccc21
2. N#Cc1ncn2c1N(C(=O)CN1CCN(Cc3ccccc3)CC1)CC=C2c1cccc(C(F)(F)F)c1
3. O=C([C@@H](Cc1ccc(Cl)cc1)NC1CCOCC1)N1CCC(Cn2cncn2)(C2CCCCC2)CC1
4. Oc1c(Cl)cc(Cl)c2cc(Cl)cnc12

1. 194 to 196 °C
2. 167 to 169 °C
3. 75 °C
4. 144 to 147 °C

I would be grateful if you could provide melting point for each of the following entries.
1. O=C(CS(=O)(=O)c1ncc(Br)cn1)c1ccccc1
2. Cc1ccc(C)c(OCCCC(C)(C)C(=O)Nc2cccc(N)c2)c1

1: 95 °C; 2: 93 to 94 °C
